Reported AUC(0-inf) values follow for various compounds
assay: AUC (0 to infinity) in rat at 1 mg/kg, iv; assay type: ADME, organism-based; set-up: time infinity, dose 1 mg/kg, route intravenous; conditions: plasma

Record excerpt, results attached:
Cc1ccc2c(NC3CC3)noc2c1-c1ccc2c(c1)NC(=O)C21CCOCC1; 5270 ng·h/mL
Cc1nnc(-c2ccc(C)c(-c3ccc4c(c3)NC(=O)C43CCN(S(C)(=O)=O)CC3)c2)[nH]1; 1030 ng·h/mL
Cc1ccc2c(N)noc2c1-c1ccc2c(c1)NC(=O)C21CCOCC1; 1230 ng·h/mL

// below: AUC(0-inf) requested for another compound
q: Consider the compound Cc1nnc(-c2ccc(C)c(-c3ccc4c(c3)NC(=O)C43CCOCC3)c2)[nH]1 and give its measured AUC(0-inf).
a: 4060 ng·h/mL

* * *

assay: AUC (0 to infinity) in rat at 10 mg/kg, po; format: ADME, organism-based; parameters: time infinity, dose 10 mg/kg, route oral; details: plasma
MEASURED PARAMETER: AUC(0-inf) (µg·h/mL)
Form entry: value (µg·h/mL) — number only.

Record excerpt, results attached:
Cc1nnc(-c2ccc(C)c(-c3ccc4c(c3)NC(=O)C43CCN(S(C)(=O)=O)CC3)c2)[nH]1; 1.37
Cc1ccc2c(NC3CC3)noc2c1-c1ccc2c(c1)NC(=O)C21CCOCC1; 3.37
Cc1nnc(-c2ccc(C)c(-c3ccc4c(c3)NC(=O)C43CCOCC3)c2)[nH]1; 11.7

q: Consider the molecule Cc1ccc2c(N)noc2c1-c1ccc2c(c1)NC(=O)C21CCOCC1 and give its measured AUC(0-inf).
a: 0.961

* * *

assay: Apparent passive permeability from basolateral to apical side of the human Caco2 cells at 12.5 uM; type: ADME, cell-based; details: Caco-2
MEASURED PARAMETER: Papp B→A at 12.5 µM (×10⁻⁶ cm/s)
Form entry: value (×10⁻⁶ cm/s) — number only.

Cc1ccc2c(NC3CC3)noc2c1-c1ccc2c(c1)NC(=O)C21CCC(F)(F)CC1; 4
Cc1ccc2c(NC3CC3)noc2c1-c1ccc2c(c1)NC(=O)C21CCOCC1; 16
Cc1ccc2c(N)noc2c1-c1ccc2c(c1)NC(=O)C21CCOCC1; 16

q: Consider the compound Cc1nnc(-c2ccc(C)c(-c3ccc4c(c3)NC(=O)C43CCN(S(C)(=O)=O)CC3)c2)[nH]1 and give its measured Papp B→A at 12.5 µM.
a: 45

q: Consider the compound Cc1nnc(-c2ccc(C)c(-c3ccc4c(c3)NC(=O)C43CCOCC3)c2)[nH]1 and give its measured Papp B→A at 12.5 µM.
a: 27

* * *

Reported MRT values follow for various compounds
experiment: Mean residence time in rat at 1 mg/kg, iv; type: ADME, organism-based; design: dose 1 mg/kg, route intravenous; conditions: in vivo
Form entry: value (h) — number only.

Record excerpt, results attached:
Cc1ccc2c(N)noc2c1-c1ccc2c(c1)NC(=O)C21CCOCC1; 2.5
Cc1nnc(-c2ccc(C)c(-c3ccc4c(c3)NC(=O)C43CCOCC3)c2)[nH]1; 4
Cc1nnc(-c2ccc(C)c(-c3ccc4c(c3)NC(=O)C43CCN(S(C)(=O)=O)CC3)c2)[nH]1; 1.8

// below: MRT requested for another compound
q: Consider the compound Cc1ccc2c(NC3CC3)noc2c1-c1ccc2c(c1)NC(=O)C21CCOCC1 and give its measured MRT.
a: 4.6

Values were extracted from ChEMBL document CHEMBL1909512.
